Biological target: Sodium-dependent serotonin transporter (Rattus norvegicus)
Sequence (P31652 whole entry): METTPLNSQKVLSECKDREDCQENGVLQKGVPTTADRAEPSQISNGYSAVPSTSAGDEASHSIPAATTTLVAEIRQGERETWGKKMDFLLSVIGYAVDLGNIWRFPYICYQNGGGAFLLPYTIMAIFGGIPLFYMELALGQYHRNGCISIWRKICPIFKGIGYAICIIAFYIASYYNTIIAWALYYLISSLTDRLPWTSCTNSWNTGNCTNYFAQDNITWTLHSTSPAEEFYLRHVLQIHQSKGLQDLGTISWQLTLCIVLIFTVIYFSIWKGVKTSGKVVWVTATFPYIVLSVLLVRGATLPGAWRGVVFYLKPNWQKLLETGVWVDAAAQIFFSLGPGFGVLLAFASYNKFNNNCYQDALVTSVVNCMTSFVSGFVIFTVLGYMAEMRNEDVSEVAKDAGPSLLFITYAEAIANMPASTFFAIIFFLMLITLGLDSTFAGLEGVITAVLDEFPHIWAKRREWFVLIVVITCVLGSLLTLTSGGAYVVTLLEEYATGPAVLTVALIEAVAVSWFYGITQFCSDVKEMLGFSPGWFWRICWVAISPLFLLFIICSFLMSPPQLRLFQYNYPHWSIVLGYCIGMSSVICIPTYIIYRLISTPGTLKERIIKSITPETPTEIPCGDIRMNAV
Experiment: Displacement of [3H]paroxetine from 5HT reuptake site of rat cortical 5HTT
We begin with a simple list: items and their reported Ki.
Reported endpoint: Ki (nM)

>  <Molecule>
Fc1ccc2[nH]cc(CCCCNC3COc4c(ccc5ncccc45)C3)c2c1 (racemic)

>  <Result number>
1.5

$$$$
>  <Molecule>
Fc1ccc2[nH]cc(CCNC3COc4ccc5ncccc5c4C3)c2c1 (racemic)

>  <Result number>
30.5

$$$$
>  <Molecule>
COc1cccc2c1CC(NCCCc1c[nH]c3ccc(F)cc13)CO2 (racemic)

>  <Result number>
9.2

$$$$

* * *

Target: 5-hydroxytryptamine receptor 1A (Homo sapiens)
Sequence (P08908 whole entry): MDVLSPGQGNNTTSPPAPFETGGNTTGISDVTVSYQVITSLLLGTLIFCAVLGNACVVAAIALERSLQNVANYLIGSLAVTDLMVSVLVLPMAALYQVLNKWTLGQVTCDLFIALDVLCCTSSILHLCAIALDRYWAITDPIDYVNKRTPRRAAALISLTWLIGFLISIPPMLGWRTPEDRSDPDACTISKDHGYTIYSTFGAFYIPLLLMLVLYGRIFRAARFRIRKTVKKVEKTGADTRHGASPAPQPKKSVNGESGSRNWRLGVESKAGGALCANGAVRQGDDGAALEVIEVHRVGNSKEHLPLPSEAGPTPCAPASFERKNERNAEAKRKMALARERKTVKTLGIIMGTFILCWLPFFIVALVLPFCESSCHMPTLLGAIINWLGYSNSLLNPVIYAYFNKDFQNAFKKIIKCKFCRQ
Experiment: Displacement of [3H]8-OH-DPAT from human 5HT1A receptor expressed in CHO cells at 1 uM
Assay type: cell-based
We begin with a simple list: items and their reported % inhibition.
Reported endpoint: % inhibition (%)

>  <Compound>
CCCN(CCCc1c[nH]c2ccc(F)cc12)C1COc2c(ccc3ncccc23)C1 (racemic)

>  <Reported endpoint>
% inhibition

>  <Result number>
46

$$$$
>  <Compound>
Fc1ccc2[nH]cc(CCNC3COc4ccc5ncccc5c4C3)c2c1 (racemic)

>  <Reported endpoint>
% inhibition

>  <Result number>
10

$$$$
>  <Compound>
Fc1ccc2[nH]cc(CCCCNC3COc4c(ccc5ncccc45)C3)c2c1 (racemic)

>  <Reported endpoint>
% inhibition

>  <Result number>
47

$$$$
>  <Compound>
CCCN(CCCCc1c[nH]c2ccc(F)cc12)C1COc2c(ccc3ncccc23)C1 (racemic)

>  <Reported endpoint>
% inhibition

>  <Result number>
21

$$$$
